Quick note: these are Ki numbers for system: Matrilysin (Homo sapiens, UniProt P09237)
Sequence (P09237 whole entry): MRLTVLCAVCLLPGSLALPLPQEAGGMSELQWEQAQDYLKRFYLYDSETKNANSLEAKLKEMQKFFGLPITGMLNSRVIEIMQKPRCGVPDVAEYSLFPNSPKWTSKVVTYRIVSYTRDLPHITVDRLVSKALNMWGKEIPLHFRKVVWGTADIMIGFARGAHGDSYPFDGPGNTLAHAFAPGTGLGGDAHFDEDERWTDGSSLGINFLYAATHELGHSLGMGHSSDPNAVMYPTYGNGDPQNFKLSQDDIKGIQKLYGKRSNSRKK
Enter the number, and then the unit.

*Q* Requested field: Ki. Item: `Cc1ccc(-c2nnn(CCCOc3ccc(S(=O)(=O)C4(C(=O)NO)CCOCC4)cc3)n2)nc1`
*A* 3 µM

*Q* Requested field: Ki. Item: `Cc1ccc(-c2nnnn2CCCOc2ccc(S(=O)(=O)C3(C(=O)NO)CCOCC3)cc2)nc1`
*A* 0.97 µM

###

- TARGET_OR_SYSTEM: Matrix metalloproteinase-9 (Homo sapiens, UniProt P14780)
- Sequence (P14780 whole entry): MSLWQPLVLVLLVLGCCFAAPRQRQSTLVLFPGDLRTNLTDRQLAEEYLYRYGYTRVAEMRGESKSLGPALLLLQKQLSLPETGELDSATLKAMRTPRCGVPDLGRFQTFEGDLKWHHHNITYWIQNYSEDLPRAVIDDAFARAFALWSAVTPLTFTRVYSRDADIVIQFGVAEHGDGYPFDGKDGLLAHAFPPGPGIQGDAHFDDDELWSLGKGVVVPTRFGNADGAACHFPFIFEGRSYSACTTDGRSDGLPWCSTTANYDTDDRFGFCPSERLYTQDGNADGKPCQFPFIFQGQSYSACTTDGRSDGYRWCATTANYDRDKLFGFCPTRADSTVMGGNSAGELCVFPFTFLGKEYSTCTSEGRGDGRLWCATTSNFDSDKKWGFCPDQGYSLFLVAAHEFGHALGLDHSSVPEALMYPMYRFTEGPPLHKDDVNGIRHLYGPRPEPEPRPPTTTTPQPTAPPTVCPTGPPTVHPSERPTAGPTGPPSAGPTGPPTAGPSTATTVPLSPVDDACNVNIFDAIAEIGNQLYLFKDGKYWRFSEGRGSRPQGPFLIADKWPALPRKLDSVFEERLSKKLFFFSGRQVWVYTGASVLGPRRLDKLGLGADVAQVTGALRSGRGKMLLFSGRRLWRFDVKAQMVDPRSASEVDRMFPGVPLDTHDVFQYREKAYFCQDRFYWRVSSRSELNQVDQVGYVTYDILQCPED
REPORTED_METRIC: pIC50
The value called pIC50 is obtained by taking minus log10 of the concentration in mol/L.

*Q* Requested field: pIC50. Item: `COc1ccc(C(=O)N2CCN(c3ccc(S(=O)(=O)C4(C(=O)NO)CCOCC4)cc3)CC2)cc1`
*A* 5.92

###

- TARGET_OR_SYSTEM: Neutrophil collagenase (Homo sapiens, UniProt P22894)
- Sequence (P22894 whole entry): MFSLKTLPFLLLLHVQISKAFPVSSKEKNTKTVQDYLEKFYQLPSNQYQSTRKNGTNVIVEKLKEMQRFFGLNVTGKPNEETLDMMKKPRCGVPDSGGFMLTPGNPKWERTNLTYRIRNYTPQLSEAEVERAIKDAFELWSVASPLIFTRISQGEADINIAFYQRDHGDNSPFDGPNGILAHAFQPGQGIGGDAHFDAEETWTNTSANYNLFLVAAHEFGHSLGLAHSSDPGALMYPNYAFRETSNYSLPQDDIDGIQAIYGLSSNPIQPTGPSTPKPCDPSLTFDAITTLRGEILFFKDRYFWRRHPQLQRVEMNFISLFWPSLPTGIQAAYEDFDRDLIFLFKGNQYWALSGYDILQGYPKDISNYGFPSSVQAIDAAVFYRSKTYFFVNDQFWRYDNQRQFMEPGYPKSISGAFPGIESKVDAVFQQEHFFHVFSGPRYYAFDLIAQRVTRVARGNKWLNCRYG
- PROTOCOL: Inhibition of human MMP-8
REPORTED_METRIC: Ki

Sample answers from the record:
*Q* Requested field: Ki. Item: `CCN1CCC(C(=O)NO)(S(=O)(=O)c2ccc(OCCCc3nc(-c4ccc(OC(F)(F)F)cc4)no3)cc2)CC1`
*A* 260 nM

*Q* Requested field: Ki. Item: `O=C(NO)C1(S(=O)(=O)c2ccc(OCCCc3nnnn3-c3ccc(OC(F)(F)F)cc3)cc2)CCOCC1`
*A* 72 nM

New cases:
*Q* Requested field: Ki. Item: `Cc1ccc(-c2nnn(CCCOc3ccc(S(=O)(=O)C4(C(=O)NO)CCOCC4)cc3)n2)nc1`
*A* 240 nM

*Q* Requested field: Ki. Item: `O=C(NO)C1(S(=O)(=O)c2ccc(OCCCn3nnc(-c4ccc(OC(F)(F)F)cc4)n3)cc2)CCOCC1`
*A* 170 nM

*Q* Requested field: Ki. Item: `COCCN1CCC(C(=O)NO)(S(=O)(=O)c2ccc(OCCCn3nnc(-c4ccc(OC(F)(F)F)cc4)n3)cc2)CC1`
*A* 8000 nM

*Q* Requested field: Ki. Item: `Cc1ccc(-c2nnnn2CCCOc2ccc(S(=O)(=O)C3(C(=O)NO)CCOCC3)cc2)nc1`
*A* 250 nM

###

- PROTOCOL: Bioavailability in rat
- Type: ADME, organism-based
- CONDITION_SET: in vivo
Cut-off 30% on bioavailability, inclusive. At or above means fulfilled; below means not fulfilled.

# example entries with known answers
*Q* Is the recorded value of bioavailability equal to or greater than 30% for this molecule? `COCCN1CCC(C(=O)NO)(S(=O)(=O)c2ccc(Oc3ccc(OC(F)(F)F)cc3)cc2)CC1`
*A* fulfilled

*Q* Is the recorded value of bioavailability equal to or greater than 30% for this molecule? `CCN1CCC(C(=O)NO)(S(=O)(=O)c2ccc(OCCCc3nc(-c4ccc(OC(F)(F)F)cc4)no3)cc2)CC1`
*A* not fulfilled

*Q* Is the recorded value of bioavailability equal to or greater than 30% for this molecule? `COCCN1CCC(C(=O)NO)(S(=O)(=O)c2ccc(OCCCn3nnc(-c4ccc(OC(F)(F)F)cc4)n3)cc2)CC1`
*A* not fulfilled

*Q* Is the recorded value of bioavailability equal to or greater than 30% for this molecule? `Cc1ccc(-c2nnn(CCCOc3ccc(S(=O)(=O)C4(C(=O)NO)CCOCC4)cc3)n2)nc1`
*A* not fulfilled

Would you kindly look at the next entry?
*Q* Is the recorded value of bioavailability equal to or greater than 30% for this molecule? `O=C(NO)C1(S(=O)(=O)c2ccc(OCCCc3nc(-c4ccc(OC(F)(F)F)cc4)no3)cc2)CCOCC1`
*A* not fulfilled

# credit: ChEMBL document CHEMBL1770140
